# System: HS 578T breast
# experiment: NCI-60 one-dose screen, 48 h (100 = growth as untreated, 0 = no growth, -100 = all killed)
# study conditions: 10 µM unless noted
This is part of a sample that, as a whole, favours compounds with a hit. Of some 83,000 tested, about 20% had one in any assay.
Decision: growth beneath 60% gives YES; growth meeting or exceeding 60% gives NO.

Answered cases to consult:
>  <compound>
N/C(=N\C(N)=N\c1nc2ccccc2s1)c1ccc(Cl)cc1

>  <label>
NO

$$$$
>  <compound>
CC(=O)Nc1cc(N2CCOCC2)c2nc(NC(=O)c3[nH]c(C)c(Cl)c3Cl)sc2c1

>  <label>
YES

$$$$
>  <compound>
NC1C2CCC1CN(c1cnc(C(=O)Nc3cc(F)cc4cccnc34)cn1)C2 (centres undefined)

>  <label>
NO

$$$$
>  <compound>
COc1ccc(/C=N\NC(=O)c2cnn(CC(O)c3ccccc3)c2N)cc1OCc1ccc(Cl)cc1 (centres undefined)

>  <label>
YES

$$$$
>  <compound>
CCOP(=O)(OCC)OC[C@]12CCC(C)(C)C[C@H]1C1=CC[C@@H]3[C@@]4(C)CC[C@H](OP(=O)(OCC)OCC)C(C)(C)[C@@H]4CC[C@@]3(C)[C@]1(C)CC2

>  <label>
NO

$$$$
>  <compound>
CC(=O)OC[C@]12CC[C@@H](C(=O)/C=C/c3cccnc3)[C@@H]1[C@H]1CC[C@@H]3[C@@]4(C)CC[C@H](OC(C)=O)C(C)(C)[C@@H]4CC[C@@]3(C)[C@]1(C)CC2

>  <label>
YES

$$$$
>  <compound>
Cn1c2nc3ccccc3c-2cc2ccccc21

>  <label>
YES

$$$$
>  <compound>
C#Cc1nc(/C=C/CCCCCCC(=O)NO)cs1

>  <label>
NO

$$$$

Please look at the following compound next.
(Q) Dear colleague, could you confirm whether growth of CCC1=Cc2c(OC)cccc2OC12C=Cc1c(OC)cccc1O2 (centres undefined) falls below 60%? Thanks.
(A) YES

# credit: PubChem BioAssay (NCI)
